target desc: METTL3/METTL14 (Homo sapiens, UniProt Q86U44)
Sequence (Q86U44 whole entry, species assumed): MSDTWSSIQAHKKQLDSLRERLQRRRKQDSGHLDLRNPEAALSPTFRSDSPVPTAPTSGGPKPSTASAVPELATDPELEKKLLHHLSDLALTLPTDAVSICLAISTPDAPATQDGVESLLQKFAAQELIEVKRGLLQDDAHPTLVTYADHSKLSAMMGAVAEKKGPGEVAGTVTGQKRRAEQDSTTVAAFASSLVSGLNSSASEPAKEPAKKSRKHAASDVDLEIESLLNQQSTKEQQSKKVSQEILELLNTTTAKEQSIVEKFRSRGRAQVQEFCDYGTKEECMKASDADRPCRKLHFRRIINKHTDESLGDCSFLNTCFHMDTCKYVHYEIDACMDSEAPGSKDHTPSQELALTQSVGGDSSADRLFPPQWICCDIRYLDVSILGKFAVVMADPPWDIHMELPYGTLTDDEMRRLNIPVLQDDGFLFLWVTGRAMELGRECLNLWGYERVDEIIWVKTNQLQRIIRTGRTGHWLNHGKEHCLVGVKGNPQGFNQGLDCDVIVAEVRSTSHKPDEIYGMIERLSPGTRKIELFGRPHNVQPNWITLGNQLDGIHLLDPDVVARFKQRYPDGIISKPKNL
Sequence (Q9HCE5 whole entry partner, species assumed): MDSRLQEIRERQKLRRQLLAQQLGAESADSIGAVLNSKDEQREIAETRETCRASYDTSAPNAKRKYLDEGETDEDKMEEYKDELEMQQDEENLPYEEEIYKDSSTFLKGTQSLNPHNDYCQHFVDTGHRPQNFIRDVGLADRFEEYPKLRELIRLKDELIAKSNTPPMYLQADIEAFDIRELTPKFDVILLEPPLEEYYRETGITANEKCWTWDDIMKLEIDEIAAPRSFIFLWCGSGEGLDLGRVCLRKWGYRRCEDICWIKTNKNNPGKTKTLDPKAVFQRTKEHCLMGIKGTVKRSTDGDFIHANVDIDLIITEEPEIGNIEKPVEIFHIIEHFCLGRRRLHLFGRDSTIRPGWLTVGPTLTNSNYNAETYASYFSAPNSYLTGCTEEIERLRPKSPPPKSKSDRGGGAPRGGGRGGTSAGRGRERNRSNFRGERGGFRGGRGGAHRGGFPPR
protocol text: METTL3-14 standard enzyme assay (3H-SAM flashplate)
cond: Table 4; METTL3 biochemical assay
Description: METTL3-14 Standard Enzyme Assay Assays were performed in a 25 μl-volume in 384-well V-bottom polypropylene microplates (Greiner Bio-One, cat. No. 781280) at ambient temperature. […] Following two washing cycles with 0.1% Tween-20, the plates were sealed and read on a TopCount (PerkinElmer, Waltham, MA) plate-based scintillation counter. […]
Listing: IC50 of selected compounds

So what's the measured IC50 for this one? CN1CCC(N(CCCO)C(=O)[C@H]2O[C@@H](n3cc(-c4ccn(C)n4)c4c(N)ncnc43)[C@H](O)[C@@H]2O)CC1 [Compound I-145]
100 to 1000 nM

So what's the measured IC50 for this one? Cn1ccc(-c2cn([C@@H]3O[C@H](C(=O)NCCc4cccnc4)[C@@H](O)[C@H]3O)c3ncnc(N)c23)n1 [Compound I-160]
≥ 1000 nM

So what's the measured IC50 for this one? CN1CCC(N(CCCc2cnoc2)C(=O)[C@H]2O[C@@H](n3cc(-c4ccn(C)n4)c4c(N)ncnc43)[C@H](O)[C@@H]2O)CC1 [Compound I-152]
100 to 1000 nM

New cases:
So what's the measured IC50 for this one? Cn1ccc(-c2cn([C@@H]3O[C@H](C(=O)NC4CCS(=O)(=O)C4)[C@@H](O)[C@H]3O)c3ncnc(N)c23)n1 (stereo partly drawn) [Compound I-213]
≥ 1000 nM

So what's the measured IC50 for this one? Cn1ccc(-c2cn([C@@H]3O[C@H](C(=O)NCCc4ccccc4Cl)[C@@H](O)[C@H]3O)c3ncnc(N)c23)n1 [Compound I-133]
100 to 1000 nM

So what's the measured IC50 for this one? CC1CC(NC(=O)[C@H]2O[C@@H](n3cc(-c4ccn(C)n4)c4c(N)ncnc43)[C@H](O)[C@@H]2O)CCN1 (stereo in doubt) [Compound I-211]
100 to 1000 nM

* * *

target desc: METTL3/METTL14 (Homo sapiens)
protocol text: METTL3-14 standard enzyme assay (3H-SAM flashplate)
cond: Table 4; METTL3 biochemical assay
pIC50: −log10 of the molar value.
parameter measured: pIC50

Solved cases below.
Fill in the recorded pIC50 for this molecule, with METTL3/METTL14 (Homo sapiens) as test system: `CN1[C@@H]2CC[C@H]1C[C@@H](NC(=O)[C@H]1O[C@@H](n3cc(-c4ccn(C)n4)c4c(N)ncnc43)[C@H](O)[C@@H]1O)C2`
6.00 to 7.00

Fill in the recorded pIC50 for this molecule, with METTL3/METTL14 (Homo sapiens) as test system: CC(O)CN(C(=O)[C@H]1O[C@@H](n2cc(-c3ccn(C)n3)c3c(N)ncnc32)[C@H](O)[C@@H]1O)C1CCN(C)CC1 (stereo partly drawn)
≤ 6.00

Fill in the recorded pIC50 for this molecule, with METTL3/METTL14 (Homo sapiens) as test system: `Cn1ccc(-c2cn([C@@H]3O[C@H](C(=O)NC4Cc5ccccc5C4)[C@@H](O)[C@H]3O)c3ncnc(N)c23)n1`
6.00 to 7.00

New cases:
Fill in the recorded pIC50 for this molecule, with METTL3/METTL14 (Homo sapiens) as test system: `Cn1ccc(-c2cn([C@@H]3O[C@H](C(=O)N4CCc5[nH]cnc5C4)[C@@H](O)[C@H]3O)c3ncnc(N)c23)n1`
6.00 to 7.00

Fill in the recorded pIC50 for this molecule, with METTL3/METTL14 (Homo sapiens) as test system: `Cn1ccc(-c2cn([C@@H]3O[C@H](C(=O)Nc4cc(N5CCC5)ccn4)[C@@H](O)[C@H]3O)c3ncnc(N)c23)n1`
6.00 to 7.00

Fill in the recorded pIC50 for this molecule, with METTL3/METTL14 (Homo sapiens) as test system: `Cn1ccc(-c2cn([C@@H]3O[C@H](C(=O)Nc4ccnc(NC5CCC5)c4)[C@@H](O)[C@H]3O)c3ncnc(N)c23)n1`
6.00 to 7.00
